Values from PubChem BioAssay AID1963831

viability, T/C values, listed per item
Test system: 889142-216-R-J1-PDC complex spheroid viability
Assay: Anticancer human tumor 889142-216-R-J1-PDC patient-derived bladder carcinoma cell line growth inhibition [POLQ]
Settings: second compound 0.0316 µM; first compound 1 µM; stronger effect = lower value
Number in %, nothing else.

Reported viability, T/C (889142-216-R-J1-PDC complex spheroid viability) for entry Nc1ccn(C2OC(CO)C(O)C2(F)F)c(=O)n1 (stereo not drawn) + Cc1cccc(N(C)C(=O)C2C(O)CCN2c2nc(C)cc(C(F)(F)F)c2C#N)c1 is 40.5

Entry COc1cc2cc(C(=O)CCC(=O)O)sc2cc1OC + Cc1cccc(N(C)C(=O)C2C(O)CCN2c2nc(C)cc(C(F)(F)F)c2C#N)c1 , 889142-216-R-J1-PDC complex spheroid viability data, viability, T/C value: 99.1

// compound CC1COCCN1c1cc(C2(S(C)(=N)=O)CC2)nc(-c2ccnc3[nH]ccc23)n1 (stereo not drawn) + Nc1ccc(C#CCN(C(=O)Cc2ncc(C(F)(F)F)cc2C(F)(F)F)c2ccc(F)cc2)nn1 , assay 889142-216-R-J1-PDC complex spheroid viability, viability, T/C value: 59.3

* * *

Tested on: 889142-216-R-J1-PDC complex spheroid viability
Assay: Anticancer human tumor 889142-216-R-J1-PDC cell line growth inhibition [POLQ];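 also: spheroids exposed to compounds for seven days; 100% = DMSO vehicle control viability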
Details: second compound 0.1 µM; first compound 0.0316 µM; stronger effect = lower value
recorded-endpoint: viability, T/C (%)
The response must be a number in % with no trailing unit.

Sample answers from the record:
compound	viability, T/C, %
COc1cccc(OCCCN)c1-c1cc(Nc2cnc(C#N)cn2)n[nH]1 + Nc1ccc(C#CCN(C(=O)Cc2ncc(C(F)(F)F)cc2C(F)(F)F)c2ccc(F)cc2)nn1	57.9
CNCc1ccc(-c2[nH]c3cc(F)cc4c3c2CCNC4=O)cc1 + COC1C(OC(N)=O)C(O)C(Oc2ccc3c(O)c(NC(=O)c4ccc(O)c(CC=C(C)C)c4)c(=O)oc3c2C)OC1(C)C	109
COc1cccc(OCCCN)c1-c1cc(Nc2cnc(C#N)cn2)n[nH]1 + COC1C(OC(N)=O)C(O)C(Oc2ccc3c(O)c(NC(=O)c4ccc(O)c(CC=C(C)C)c4)c(=O)oc3c2C)OC1(C)C	41.1

Reported viability, T/C of CC1COCCN1c1cc(C2(O)CC3CCC(C2)O3)c2cnn(-c3ccn[nH]3)c2n1 (stereo not drawn) + Nc1ccc(C#CCN(C(=O)Cc2ncc(C(F)(F)F)cc2C(F)(F)F)c2ccc(F)cc2)nn1 : 67.2

Documented viability, T/C of CC1COCCN1c1cc(C2(O)CC3CCC(C2)O3)c2cnn(-c3ccn[nH]3)c2n1 (stereo not drawn) + Cc1cccc(N(C)C(=O)C2C(O)CCN2c2nc(C)cc(C(F)(F)F)c2C#N)c1 : 56.7

For record O=C(c1cc(Cc2n[nH]c(=O)c3ccccc23)ccc1F)N1CCN(C(=O)C2CC2)CC1 + Nc1ccc(C#CCN(C(=O)Cc2ncc(C(F)(F)F)cc2C(F)(F)F)c2ccc(F)cc2)nn1 the listed viability, T/C is 95.3

Measured viability, T/C of C=CCn1c(=O)c2cnc(Nc3ccc(N4CCN(C)CC4)cc3)nc2n1-c1cccc(C(C)(C)O)n1 + COC1C(OC(N)=O)C(O)C(Oc2ccc3c(O)c(NC(=O)c4ccc(O)c(CC=C(C)C)c4)c(=O)oc3c2C)OC1(C)C : 108

According to the records, this compound COc1cccc2c1C(=O)c1c(O)c3c(c(O)c1C2=O)CC(O)(C(=O)CO)CC3OC1CC(N)C(O)C(C)O1 (stereo not drawn) + Cc1cccc(N(C)C(=O)C2C(O)CCN2c2nc(C)cc(C(F)(F)F)c2C#N)c1 displays viability, T/C of 77

What the record says about O=C(Nc1ccc(O)c(NS(=O)(=O)c2ccc(F)cc2)c1)c1ccc(-c2ccccc2)cc1 + Nc1ccc(C#CCN(C(=O)Cc2ncc(C(F)(F)F)cc2C(F)(F)F)c2ccc(F)cc2)nn1 : viability, T/C is 104

Notebook: CC(C)n1c(=O)n(C)c2cnc3cc(F)c(-c4ccc(OCCCN5CCCCC5)nc4)cc3c21 + Cc1cccc(N(C)C(=O)C2C(O)CCN2c2nc(C)cc(C(F)(F)F)c2C#N)c1 , viability, T/C read as 87.9

Value of measured viability, T/C for the entry Cn1ncnc1[C@H]1c2n[nH]c(=O)c3cc(F)cc(c23)N[C@@H]1c1ccc(F)cc1 + COC1C(OC(N)=O)C(O)C(Oc2ccc3c(O)c(NC(=O)c4ccc(O)c(CC=C(C)C)c4)c(=O)oc3c2C)OC1(C)C : 73.4
